This collection of values is drawn from ChEMBL document CHEMBL1921757.

Tested on: Vibrio cholerae
protocol_details: Antibacterial activity against Vibrio cholerae MM920 assessed as growth inhibition after 4 hrs by spectrophotometry
Assay type: organism-based
particulars: in vivo
recorded_endpoint: growth inhibition (GI)

Past entries and their recorded results:
{"compound": "CCCCCC(=O)[C@@H](O)CC", "val": "Not Active"}
{"compound": "CCCCCCCCCCC(=O)CC", "val": "Not Active"}
{"compound": "CCCCCCCCCC(=O)C(=O)CC", "val": "Not Active"}
{"compound": "CCCCCCCCCC(=O)C(O)c1ccccc1Br (racemic)", "val": "Not Active"}
{"compound": "CCCCCCC(=O)[C@@H](O)CC", "val": "Not Active"}

Input line: Please report the measured growth inhibition (GI) for CCCCCCCCCC(=O)C(O)CCC (racemic)
Output line: Not Active

Input line: Given the compound CCCCCCCCCC(=O)CCC , write its reported growth inhibition (GI).
Output line: Not Active

Input line: Consider the compound CCCCCCCCCC(=O)C(O)c1ccc(Br)cc1 (racemic) . State its measured growth inhibition (GI).
Output line: Not Active
